All figures here come from ChEMBL document CHEMBL1133236.

test system: Aspergillus niger; experiment: Antifungal activity against Aspergillus niger KCTC 1231; type: functional

STRUCTURE: Cc1nc2c(s1)C(=O)C=C(Nc1cccc(Br)c1)C2=O
MIC / µg/mL: 12.5
--
STRUCTURE: Cc1nc2c(s1)C(=O)C=C(Nc1ccc(F)cc1)C2=O
MIC / µg/mL: 3.2
--
STRUCTURE: O=C1C=C(Nc2ccc(Cl)cc2)C(=O)c2scnc21
MIC / µg/mL: 12.5
--
STRUCTURE: Cc1nc2c(s1)C(=O)C=C(Nc1ccc(Cl)cc1)C2=O
MIC / µg/mL: 6.3
--
STRUCTURE: CCOc1ccc(NC2=CC(=O)c3sc(C)nc3C2=O)cc1
MIC / µg/mL: 1.6
--
STRUCTURE: Cc1nc2c(s1)C(=O)C=C(Nc1ccc(C)c(C)c1)C2=O
MIC / µg/mL: 12.5
--
STRUCTURE: Cc1nc2c(s1)C(=O)C=C(Nc1ccc(C(F)(F)F)cc1)C2=O
MIC / µg/mL: 6.3

* * *

tested on: Candida albicans; assay: Antifungal activity against Candida albicans ATCC 10231; format: functional

STRUCTURE: O=C1C=C(Nc2ccc(OC(F)(F)F)cc2)C(=O)c2scnc21
MIC: 12.5 µg/mL
--
STRUCTURE: Nc1nc(=O)[nH]cc1F
MIC: 3.2 µg/mL
--
STRUCTURE: Cc1nc2c(s1)C(=O)C=C(Nc1ccc(C(F)(F)F)cc1)C2=O
MIC: 12.5 µg/mL
--
STRUCTURE: O=C1C=C(Nc2ccccc2)C(=O)c2scnc21
MIC: 12.5 µg/mL
--
STRUCTURE: Cc1ccc(NC2=CC(=O)c3sc(C)nc3C2=O)cc1
MIC: 6.3 µg/mL
--
STRUCTURE: O=C1C=C(Nc2ccc(Cl)cc2)C(=O)c2scnc21
MIC: 12.5 µg/mL
--
STRUCTURE: Cc1nc2c(s1)C(=O)C=C(Nc1ccc(Cl)cc1)C2=O
MIC: 12.5 µg/mL
--
STRUCTURE: CCCCCCc1ccc(NC2=CC(=O)c3sc(C)nc3C2=O)cc1
MIC: 12.5 µg/mL
--
STRUCTURE: O=C1C=C(Nc2ccc(F)cc2)C(=O)c2scnc21
MIC: 12.5 µg/mL
--
STRUCTURE: CCOc1ccc(NC2=CC(=O)c3ncsc3C2=O)cc1
MIC: 12.5 µg/mL
